// provenance: patent US20040138134A1

- experimental-system: natriuretic peptide receptor on C3H10T1/2 cells
- measurement-description: cell-based or functional assay
reported-metric: % relative binding (cGMP, Biotrak EIA, peptide at 10^-6 M) (%)
Give just the numeric value; % need not be written.

>  <binder>
CHFGLKLDRIGSMSC [CNP variant SEQ ID NO:11]

>  <test-value>
25.9

$$$$
>  <binder>
CHFGLKLDRIGAQSC [CNP variant SEQ ID NO:13]

>  <test-value>
26.5

$$$$
>  <binder>
CFGLKLARIGSMSGLGC [CNP variant SEQ ID NO:7]

>  <test-value>
49.1

$$$$
>  <binder>
CHFGLKLDRIC [CNP variant SEQ ID NO:23]

>  <test-value>
3.8

$$$$

Lab note: next binder to report on.
**Q:** I'd like to know its % relative binding (cGMP, Biotrak EIA, peptide at 10^-6 M). The binder in question is CAGLKLDRIGSMSGLGC [CNP variant SEQ ID NO:6]
**A:** 43.8
